The measurements presented in this section are drawn from PubChem BioAssay AID1159580.

- method summary: chemical genetic growth profiling, strain panel (AID 1159580);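 note: tested at 20 µM; growth read once vehicle control cultures reached saturation at 30 °C; 1 = growth at the plate median or of vehicle wells; lower values mean less growth of the strain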
- study conditions: S. cerevisiae deletion strains, growth OD, locus YML094W, strain GIM5, active compounds read low
The campaign covered roughly 5,500 compounds. About 2,000 (36%) were called active. Not shown: some 18% with an inconclusive outcome. This is one part of the list.
observation type: normalized growth
Please give the numeric answer without any surrounding text.

Below are worked cases with known answers.
N#Cc1cc(I)c(C#N)c(I)c1    0.98
O=C1c2ccccc2C(=O)N1CNc1cccc(Cl)c1    0.96
C/C(=N/O)c1ccn(S(=O)(=O)c2ccc(Cl)cc2)c1    1.02

// query normalized growth value for entry `Cc1cccc(NC(=O)c2ccccc2)c1`
0.924

Entry under review: `CCCCC#Cc1ccc(C(=O)NNC(=O)Nc2cc(Cl)cc(Cl)c2)o1` . Reported normalized growth?
1

----------
- method summary: chemical genetic growth profiling, strain panel (AID 1159580);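 note: tested at 20 µM; growth read once vehicle control cultures reached saturation at 30 °C; 1 = growth at the plate median or of vehicle wells; lower values mean less growth of the strain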
- study conditions: S. cerevisiae deletion strains, growth OD, locus YPL106C, strain sse1
The whole screen tested about 5,500 compounds, of which about 2,000 (36%) were called active. Another 18% or so got no clear call; they are omitted. Rule as the data show it: active = normalized growth mostly below about 0.91 (no sharp cut-off); inconclusive = no clear call, values can overlap the other calls; inactive = mostly above about 0.92. Some of the results follow.
Choose one outcome from this list and give only that: Y for active, N for inactive

Field: outcome | Entry: `C=C[C@H]1CN2CC[C@H]1C[C@H]2[C@H](O)c1ccnc2ccccc12`
N

Hi, do you know how `C=CC[C@@H]1/C=C(\C)C[C@H](C)C[C@H](OC)[C@H]2O[C@@](O)(C(=O)C(=O)N3CCCC[C@H]3C(=O)O[C@H](/C(C)=C/[C@@H]3CC[C@@H](O)[C@H](OC)C3)[C@H](C)[C@@H](O)CC1=O)[C@H](C)C[C@@H]2OC` came out in this test?
Y

Would you mind telling me which call this test gave `CNC(C)(C)Cc1ccccc1` ?
N

Dear all, I need the recorded test outcome for `O=c1c(O)c(-c2ccccc2)oc2cccc(O)c12` , thank you.
N

Per the assay record, what outcome was assigned to `CCCCCC/C=C\CCCCCCCc1cccc(O)c1C(=O)O` ?
N

----------
- method summary: chemical genetic growth profiling, strain panel (AID 1159580);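 note: tested at 20 µM; growth read once vehicle control cultures reached saturation at 30 °C; 1 = growth at the plate median or of vehicle wells; lower values mean less growth of the strain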
- study conditions: S. cerevisiae deletion strains, growth OD, locus YDR159W, strain sac3, active compounds read low
Hit rate of the full screen: of about 5,500 compounds, about 2,000 (36%) were called active. Inconclusive results (about 18%) are left out. Some of the results follow.
The label 1.0 is reserved for normalized growth strictly under 1; 0.0 covers values equal to or above it.

Some solved cases for reference:
O=C1C=C(O)c2ccccc2C1=O    1.0
O=C1C=CC(=O)c2c(O)cccc21    1.0
COc1cc(OC)c2c(OC)c(-c3ccc4c(c3)OCO4)c(=O)oc2c1    1.0
COC(=O)C[C@H]1C(C)(C)[C@@H](OC(C)=O)[C@@H]2CC3=C4CC(=O)O[C@@H](c5ccoc5)[C@]4(C)CCC3[C@@]1(C)C2=O (stereo partly drawn)    1.0

Please look at the following compound next.
Determine whether this compound shows normalized growth lower than 1 (ties excluded): `CC(=O)OCC1=C(C(=O)O)N2C(=O)[C@@H](NC(=O)CSc3ccncc3)[C@H]2SC1`
0.0

----------
- method summary: chemical genetic growth profiling, strain panel (AID 1159580);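 note: tested at 20 µM; growth read once vehicle control cultures reached saturation at 30 °C; 1 = growth at the plate median or of vehicle wells; lower values mean less growth of the strain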
- study conditions: S. cerevisiae deletion strains, growth OD, locus YOL006C, strain TOP1, active compounds read low
Out of some 5,500 compounds screened, about 2,000 (36%) were called active. Inconclusive results (about 18%) are left out. The list shows a part of the results.
# normalized growth listing for each entry below
Response field accepts a number only; no unit should be typed.

O=C(c1ccccc1)c1ccc2n1CCC2C(=O)O (configuration not stated)    1.05
O=C(O)CC[N+](=O)[O-]    1.01
CON    1.08
COc1ccc(/C=C2/C(=O)N(c3cccc(Cl)c3)N=C2C)cc1    0.849

Next, consider the following compound.
Quick one: normalized growth of `O=C(O)CCC(=O)OC[C@@H](NC(=O)C(Cl)Cl)[C@H](O)c1ccc([N+](=O)[O-])cc1` ?
1.15
